Target: COUP transcription factor 2 (Homo sapiens)
Assay: COUP-TFII reporter suppression in human cells – cell-based, luciferase reporter, HEK293T, luminescence, primary screen (AID 686940);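 also: cells cotransfected with COUP-TFII expression vector driving the NGFI-A reporter; 0% = median of COUP-TF2 test wells and 100% = reporter-only cells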
Settings: HEK293T NGFI-A luciferase reporter, at 8.6 µM, hits give high values
Among all 370,000 compounds or so, about 2,600 (0.7%) were called active. For the sample, actives were picked, then their nearest neighbours and some compounds at random.
parameter: inhibition (%)
Numbers only, in %.

As a guide, the following entries are already answered.
{"compound": "CN(C)S(=O)(=O)c1cccc(C(=O)N/N=C\\c2ccco2)c1", "target_desc": "COUP transcription factor 2 (Homo sapiens)", "recorded_number": 2.18}
{"compound": "Cc1ccc(C)c(N2CCN(C(=O)Cn3ncn4cccc4c3=O)CC2)c1", "target_desc": "COUP transcription factor 2 (Homo sapiens)", "recorded_number": 10.1}
{"compound": "COc1cccc(CNc2ncc(-c3ccccc3)n2C)c1", "target_desc": "COUP transcription factor 2 (Homo sapiens)", "recorded_number": -0.1}
{"compound": "COc1ccc(NC(=S)NCc2cccs2)c(OC)c1", "target_desc": "COUP transcription factor 2 (Homo sapiens)", "recorded_number": 6.7}
{"compound": "Cc1ccccc1NC(=O)COC(=O)c1ccc(Sc2ncn[nH]2)c([N+](=O)[O-])c1", "target_desc": "COUP transcription factor 2 (Homo sapiens)", "recorded_number": 13.4}

# per-item lookup of inhibition; items listed below
1. C[C@@H](NC(=O)c1ccccc1OCC(=O)Nc1ccc(I)cc1)C(=O)N(C)Cc1ccccc1
2. COP(=O)(O)CNC(=O)OCc1ccccc1
3. Cc1ccc(C)c(N2CCN(C(=O)CCCCCn3c(=S)[nH]c4ccc(N5CCOCC5)cc4c3=O)CC2)c1
4. COC(=O)C[C@H]1CC[C@H]2[C@H](COc3ccc(NC(=O)C4CC4)cc3C(=O)N2C)O1
5. COc1ccccc1CNCc1cccs1

Found:
[3.89, -0.48, 44.7, -12.2, 9.93]

# per-item lookup of inhibition; items listed below
1. C=C(C)C#CC(Cc1ccccc1)N(CC1CC1)/C(N)=N/C(=O)OCc1ccccc1 (configuration not stated)
2. O=C(NCc1cccs1)C1CCCN(S(=O)(=O)c2ccc([N+](=O)[O-])cc2)C1 (configuration not stated)
3. COc1cccc(CNc2nc3cc(-c4csc5ccccc45)sc3c(=O)n2C)c1
4. CCc1c(C)nc(SCC(=O)NC2CCCC2)[nH]c1=O
5. COC(=O)c1ccccc1NC(=O)CSc1n[nH]c(-c2ccncc2)n1
6. O=C(CSc1nnc(-c2cccc(Cl)c2)n1Cc1ccco1)Nc1ccc(OCc2ccccc2)cc1
7. CCCCn1c(SCC(=O)N2CCCC2=O)nc2cc(S(N)(=O)=O)ccc21

Found:
1. 5.09
2. -10.3
3. 5.09
4. 11.9
5. 8.9
6. -14.7
7. -5.45

# per-item lookup of inhibition; items listed below
1. c1ccc(-c2cnc(CN3CCN(c4ccccc4)CC3)o2)cc1
2. O=C(C1CCN(S(=O)(=O)c2cccs2)CC1)N1CCCCCC1
3. COc1ccc(/C=C2\CC3(OC(C)=O)CCCN2C3)cc1 (configuration not stated)
4. COc1cccc(CNc2nc(NCc3cccs3)nc3ccsc23)c1
5. C=CCN1C(=O)[C@@H](CC(=O)NCC2CCCCC2)[C@]2(C(=O)OC)CCCCC=C12

Found:
[-25.5, -11.4, -13.1, 45.6, 2.77]
